In this section we review reported protein stability index values for a set of variants.
B1: DUSP5 (parent)
chain: YSEYPECCVDVKPISQEKIESERA

variants of: B1; test: protein stability index of a GFP-peptide fusion (GPS, HEK-293T) (PSI 1-6); higher = more stable; conditions: c terminus: a fixed tail appended;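 note: lentivirally expressed fusions sorted by FACS into six bins by GFP to DsRed ratio, PSI derived from sequencing read proportions per bin multiplied by bin number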
Please reply with the number alone, leaving off any unit.

Solved cases (4 shown):
- E6P: 2.4
- K18L: 3.68
- R23D: 4.41
- S21L: 3.79

// protein stability index lookup, variant = P5V , result: 4.45

Form field protein stability index, entry V11L : 3.84

Summary for this variant, D10F : protein stability index is 2.47

This collection of values is drawn from the supplement of paper PMC10567573.
